Provenance of the data: ChEMBL document CHEMBL1221395

Tested on: KB
Assay: Cytotoxicity against human KB cells after 24 hrs by SRB assay
measured metric: GI50

1) COc1ccc(-c2nnc(-c3ccc(C(F)(F)F)cc3)o2)cc1OCCCOc1cc2c(cc1OC)C(=O)N1CCC[C@H]1C=N2 = < 100 nM
2) COc1ccc(-c2nnc(-c3cc(OC)c(OC)c(OC)c3)o2)cc1OCCCCOc1cc2c(cc1OC)C(=O)N1CCC[C@H]1C=N2 = < 100 nM
3) COc1ccc(-c2nnc(-c3ccc(F)cc3)o2)cc1OCCCCOc1cc2c(cc1OC)C(=O)N1CCC[C@H]1C=N2 = < 100 nM
4) COc1ccc(-c2nnc(-c3cc(OC)c(OC)c(OC)c3)o2)cc1OCCCCCOc1cc2c(cc1OC)C(=O)N1CCC[C@H]1C=N2 = < 100 nM
5) COc1ccc(-c2nnc(-c3ccc(F)cc3)o2)cc1OCCCCCOc1cc2c(cc1OC)C(=O)N1CCC[C@H]1C=N2 = < 100 nM
